// provenance: paper PMC6413952

Assign C*8hr to each entry below.
Test: Rat oral pharmacokinetic study (plasma AUC, C8hr)
Type: in vivo, Sprague-Dawley rats
Conditions: PO rats; C(8hr)/dose
Experimental: PO doses were administrated by oral gavage, IP doses by intraperitoneal injection to BALB/c mice or Sprague-Dawley rats (Charles River Laboratories, USA). Serial blood samples collected into EDTA anticoagulant for plasma concentration analysis were obtained from each animal after dosing. […] The supernatant was injected into an HPLC-MS/MS system for separation and quantitation. […] The area under the plasma concentration-time curve (AUC) was calculated using the linear trapezoidal rule.
Answers are plain numbers, in ng/mL per mg/kg.

Reference set (2 entries):
# Compound, Observed result
rows = [
    ("CC[C@H]1OC(=O)C[C@@H](O)[C@H](C)[C@@H](O[C@@H]2O[C@H](C)[C@@H](O[C@H]3C[C@@](C)(O)[C@@H](OCc4ccc(F)cc4)[C@H](C)O3)[C@H](N(C)C)[C@H]2OC(=O)C(C)C)[C@@H](CC=O)C[C@@H](C)C(=O)/C=C/C(C)=C/[C@@H]1CO[C@@H]1O[C@H](C)[C@@H](O)[C@@H](OC)[C@H]1OC", 30),
    ("CCCCC(=O)OC1C(OC2C(CC=O)CC(C)C(=O)C=CC(C)=CC(COC3OC(C)C(O)C(OC)C3OC)C(CC)OC(=O)CC(O)C2C)OC(C)C(OC2CC(C)(O)C(O)C(C)O2)C1N(C)C (stereo not drawn)", 2.5),
]

Next, consider the following compound.
Lookup: # lookup: C*8hr of CCC1OC(=O)CC(O)C(C)C(OC2OC(C)C(OC3CC(C)(O)C(OC(=O)C(C)(C)C)C(C)O3)C(N(C)C)C2O)C(CC=O)CC(C)C(=O)C=CC(C)=CC1COC1OC(C)C(O)C(OC)C1OC (stereo not drawn)
Found: 3.0

---

Assign AUC* parent to each entry below.
Experiment: Rat oral pharmacokinetic study (plasma AUC, C8hr)
Type: in vivo, Sprague-Dawley rats
Conditions: PO, Sprague-Dawley rats; AUC* = AUC/dose
Procedure: PO doses were administrated by oral gavage, IP doses by intraperitoneal injection to BALB/c mice or Sprague-Dawley rats (Charles River Laboratories, USA). Serial blood samples collected into EDTA anticoagulant for plasma concentration analysis were obtained from each animal after dosing. […] The supernatant was injected into an HPLC-MS/MS system for separation and quantitation. […] The area under the plasma concentration-time curve (AUC) was calculated using the linear trapezoidal rule.
Numbers only, in ng-hr/ml per mg/kg.

Reference set (3 entries):
# Molecule, Unit info, AUC* parent
data = [
    ("CC[C@H]1OC(=O)C[C@@H](O)[C@H](C)[C@@H](O[C@@H]2O[C@H](C)[C@@H](O[C@H]3C[C@@](C)(O)[C@@H](O)[C@H](C)O3)[C@H](N(C)C)[C@H]2O)[C@@H](CC=O)C[C@@H](C)C(=O)/C=C/C(C)=C/[C@@H]1CO[C@@H]1O[C@H](C)[C@@H](O)[C@@H](OC)[C@H]1OC", "ng-hr/ml per mg/kg", 9.6),
    ("CCC1OC(=O)CC(O)C(C)C(OC2OC(C)C(OC3CC(C)(O)C(OC(=O)N(CC)CC)C(C)O3)C(N(C)C)C2OC(=O)C(C)C)C(CC=O)CC(C)C(=O)C=CC(C)=CC1COC1OC(C)C(O)C(OC)C1OC (stereo not shown)", "ng-hr/ml per mg/kg", 420),
    ("CCC1OC(=O)CC(O)C(C)C(OC2OC(C)C(OC3CC(C)(O)C(OC(=O)C(C)(C)C)C(C)O3)C(N(C)C)C2O)C(CC=O)CC(C)C(=O)C=CC(C)=CC1COC1OC(C)C(O)C(OC)C1OC (stereo not shown)", "ng-hr/ml per mg/kg", 58),
]

Answer for every listed entry: what is its AUC* parent? The entries follow.
1. CC[C@H]1OC(=O)C[C@@H](O)[C@H](C)[C@@H](O[C@@H]2O[C@H](C)[C@@H](O[C@H]3C[C@@](C)(O)[C@@H](OCc4ccc(F)cc4)[C@H](C)O3)[C@H](N(C)C)[C@H]2OC(=O)C(C)C)[C@@H](CC=O)C[C@@H](C)C(=O)/C=C/C(C)=C/[C@@H]1CO[C@@H]1O[C@H](C)[C@@H](O)[C@@H](OC)[C@H]1OC
2. CC[C@H]1OC(=O)C[C@@H](O)[C@H](C)[C@@H](O[C@@H]2O[C@H](C)[C@@H](O[C@H]3C[C@@](C)(O)[C@@H](OCc4ccc(F)cc4)[C@H](C)O3)[C@H](N(C)C)[C@H]2O)[C@@H](CC=O)C[C@@H](C)C(=O)/C=C/C(C)=C/[C@@H]1CO[C@@H]1O[C@H](C)[C@@H](O)[C@@H](OC)[C@H]1OC
3. CCCCC(=O)OC1C(OC2C(CC=O)CC(C)C(=O)C=CC(C)=CC(COC3OC(C)C(O)C(OC)C3OC)C(CC)OC(=O)CC(O)C2C)OC(C)C(OC2CC(C)(O)C(O)C(C)O2)C1N(C)C (stereo not shown)

Found:
1. 510
2. 16
3. 58

---

Experiment: Rat oral pharmacokinetic study (plasma AUC, C8hr)
Format: in vivo, Sprague-Dawley rats
Conditions: potency-weighted AUC, PO rats
Description: PO doses were administrated by oral gavage, IP doses by intraperitoneal injection to BALB/c mice or Sprague-Dawley rats (Charles River Laboratories, USA). Serial blood samples collected into EDTA anticoagulant for plasma concentration analysis were obtained from each animal after dosing. […] The supernatant was injected into an HPLC-MS/MS system for separation and quantitation. […] The area under the plasma concentration-time curve (AUC) was calculated using the linear trapezoidal rule.
Labelling field: enter Y if recorded AUC*/EC50 is less than 20 ng-hr/ml/nM per mg/kg. Enter N if it equals or exceeds that cut-off.

Illustrative cases are given below, each with its answer.
# Compound, Answer label
measured = [
    ("CC[C@H]1OC(=O)C[C@@H](O)[C@H](C)[C@@H](O[C@@H]2O[C@H](C)[C@@H](O[C@H]3C[C@@](C)(O)[C@@H](O)[C@H](C)O3)[C@H](N(C)C)[C@H]2O)[C@@H](CC=O)C[C@@H](C)C(=O)/C=C/C(C)=C/[C@@H]1CO[C@@H]1O[C@H](C)[C@@H](O)[C@@H](OC)[C@H]1OC", "Y"),
    ("CC[C@H]1OC(=O)C[C@@H](O)[C@H](C)[C@@H](O[C@@H]2O[C@H](C)[C@@H](O[C@H]3C[C@@](C)(O)[C@@H](OCc4ccc(F)cc4)[C@H](C)O3)[C@H](N(C)C)[C@H]2OC(=O)C(C)C)[C@@H](CC=O)C[C@@H](C)C(=O)/C=C/C(C)=C/[C@@H]1CO[C@@H]1O[C@H](C)[C@@H](O)[C@@H](OC)[C@H]1OC", "Y"),
    ("CCC1OC(=O)CC(O)C(C)C(OC2OC(C)C(OC3CC(C)(O)C(OC(=O)C(C)(C)C)C(C)O3)C(N(C)C)C2O)C(CC=O)CC(C)C(=O)C=CC(C)=CC1COC1OC(C)C(O)C(OC)C1OC (stereo not drawn)", "Y"),
    ("CCCCC(=O)OC1C(OC2C(CC=O)CC(C)C(=O)C=CC(C)=CC(COC3OC(C)C(O)C(OC)C3OC)C(CC)OC(=O)CC(O)C2C)OC(C)C(OC2CC(C)(O)C(O)C(C)O2)C1N(C)C (stereo not drawn)", "Y"),
    ("CCC1OC(=O)CC(O)C(C)C(OC2OC(C)C(OC3CC(C)(O)C(OC(=O)N(CC)CC)C(C)O3)C(N(C)C)C2OC(=O)C(C)C)C(CC=O)CC(C)C(=O)C=CC(C)=CC1COC1OC(C)C(O)C(OC)C1OC (stereo not drawn)", "Y"),
]

Lookup: Lab note: AUC*/EC50 threshold 20 ng-hr/ml/nM per mg/kg. Does this compound come in strictly under it? `CC[C@H]1OC(=O)C[C@@H](O)[C@H](C)[C@@H](O[C@@H]2O[C@H](C)[C@@H](O[C@H]3C[C@@](C)(O)[C@@H](OCc4ccc(F)cc4)[C@H](C)O3)[C@H](N(C)C)[C@H]2O)[C@@H](CC=O)C[C@@H](C)C(=O)/C=C/C(C)=C/[C@@H]1CO[C@@H]1O[C@H](C)[C@@H](O)[C@@H](OC)[C@H]1OC`
Found: N

---

test: Rat oral pharmacokinetic study (plasma AUC, C8hr); type: in vivo, Sprague-Dawley rats; details: potency-weighted 8-hr drug level, PO rats
Mark criterion met for reported C*8hr/ EC50 of 1 ng/ml/nM per mg/kg or greater; mark criterion not met for anything smaller.

Illustrative cases are given below, each with its answer.
# Compound, Answer label
measured = [
    ("CCCCC(=O)OC1C(OC2C(CC=O)CC(C)C(=O)C=CC(C)=CC(COC3OC(C)C(O)C(OC)C3OC)C(CC)OC(=O)CC(O)C2C)OC(C)C(OC2CC(C)(O)C(O)C(C)O2)C1N(C)C (stereo not drawn)", "criterion not met"),
    ("CC[C@H]1OC(=O)C[C@@H](O)[C@H](C)[C@@H](O[C@@H]2O[C@H](C)[C@@H](O[C@H]3C[C@@](C)(O)[C@@H](OCc4ccc(F)cc4)[C@H](C)O3)[C@H](N(C)C)[C@H]2O)[C@@H](CC=O)C[C@@H](C)C(=O)/C=C/C(C)=C/[C@@H]1CO[C@@H]1O[C@H](C)[C@@H](O)[C@@H](OC)[C@H]1OC", "criterion met"),
    ("CC[C@H]1OC(=O)C[C@@H](O)[C@H](C)[C@@H](O[C@@H]2O[C@H](C)[C@@H](O[C@H]3C[C@@](C)(O)[C@@H](O)[C@H](C)O3)[C@H](N(C)C)[C@H]2O)[C@@H](CC=O)C[C@@H](C)C(=O)/C=C/C(C)=C/[C@@H]1CO[C@@H]1O[C@H](C)[C@@H](O)[C@@H](OC)[C@H]1OC", "criterion not met"),
    ("CC[C@H]1OC(=O)C[C@@H](O)[C@H](C)[C@@H](O[C@@H]2O[C@H](C)[C@@H](O[C@H]3C[C@@](C)(O)[C@@H](OCc4ccc(F)cc4)[C@H](C)O3)[C@H](N(C)C)[C@H]2OC(=O)C(C)C)[C@@H](CC=O)C[C@@H](C)C(=O)/C=C/C(C)=C/[C@@H]1CO[C@@H]1O[C@H](C)[C@@H](O)[C@@H](OC)[C@H]1OC", "criterion met"),
    ("CCC1OC(=O)CC(O)C(C)C(OC2OC(C)C(OC3CC(C)(O)C(OC(=O)N(CC)CC)C(C)O3)C(N(C)C)C2OC(=O)C(C)C)C(CC=O)CC(C)C(=O)C=CC(C)=CC1COC1OC(C)C(O)C(OC)C1OC (stereo not drawn)", "criterion met"),
]

Here is the next item to consider.
Lookup: Is C*8hr/ EC50 at least 1 ng/ml/nM per mg/kg? Consider CCC1OC(=O)CC(O)C(C)C(OC2OC(C)C(OC3CC(C)(O)C(OC(=O)C(C)(C)C)C(C)O3)C(N(C)C)C2O)C(CC=O)CC(C)C(=O)C=CC(C)=CC1COC1OC(C)C(O)C(OC)C1OC (stereo not drawn)
Found: criterion not met
